experiment: inhibitors of mutant huntingtin aggregation, primary screen, imaging, exon1htt(103Q)mCFP cells, high-content imaging (AID 483); settings: exon1htt(103Q)mCFP cell line, aggregate imaging, at 2 µM; stronger effect = higher value;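 note: compound exposure lasted 3 days before fixation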
READOUT_LABEL: inhibition of aggregation (%)

1. O=C(O)c1ccc(COc2c(F)c(F)c(F)c(F)c2F)o1; -42.8
2. CO[C@H]1C[C@@H]2CC[C@@H](C)[C@@](O)(O2)C(=O)C(=O)N2CCCC[C@H]2C(=O)O[C@H]([C@H](C)C[C@@H]2CC[C@@H](O)[C@H](OC)C2)CC(=O)[C@H](C)C=C(C)[C@@H](O)[C@@H](OC)C(=O)[C@H](C)C[C@H](C)C=CC=CC=C1C; 3.4
3. CCCC(=O)N1c2ccccc2NC2=C(C(=O)CCC2)C1c1ccc(F)cc1 (stereo unspecified); 3.9
4. Cc1c(O)c(CN2CCCCC2)cc2c3c(c(=O)oc12)CCC3; 2.7
5. NC(=O)OCC(COC(N)=O)c1ccccc1; -2.4
6. Cc1ccc(-n2nc3cc(Cl)c(NC(=O)c4ccco4)cc3n2)cc1; -7.2
7. CN1CCN(/C=N/c2sc3c(c2C#N)CCCCC3)CC1; 2.6
8. CC(C)CCNC(=O)[C@H](CC(C)C)NC(=O)[C@H]1O[C@@H]1C(=O)O; 11.7
9. COc1ccc(C(=O)Cn2c(N3CCCCC3)nc3c2c(=O)n(C)c(=O)n3C)cc1OC; 12.9
10. Cc1cccc(C)c1NC(=O)C1CCCCN1C (stereo unspecified); -22
11. Cc1cc2c(c(=O)o1)C(Cc1ccccc1)C(C#N)=C(N)O2 (stereo unspecified); -2.1
12. Cc1nc2ccccn2c(=O)c1CCN1CCC(C(=O)c2ccc(F)cc2)CC1; -22.1
13. CC(=O)Nc1ccccc1O; 14.1
14. CCCOc1cccc(C2/C(=C(/O)c3ccccc3)C(=O)C(=O)N2CCN(C)C)c1 (stereo unspecified); -5.1
15. CCN(CC)C(=O)c1sc2nc(-c3cccs3)cc(-c3cccs3)c2c1N; 0.6
16. CCCC(=O)N(Cc1cc2ccccc2[nH]c1=O)c1ccccc1OC; -1.6
17. C[C@]12CC[C@H]3[C@@H](CCC4=CC(=O)CC[C@@]43C)[C@@H]1CC[C@@H]2C(=O)CO; 4.5
18. COC(=O)c1cc(Br)c(=O)n(-c2nccs2)c1; -14.3
19. O=C(CSc1nnc(-c2ccco2)c(-c2ccco2)n1)Nc1ccccc1; -9.2
20. CNC(=O)CC(C(=O)O)c1ccc(OC(C)C)cc1 (stereo unspecified); 26.1
21. COc1ccccc1N=Cc1nc(-c2ccccc2)oc1OC(C)=O; -25.8

* * *

Reported z-score values follow for various compounds
test: DUSP6 inhibitors restoring Erk phosphorylation by chemical complementation, primary imaging in DUSP6-transfected HeLa (AID 609); settings: HeLa MKP-3 transfected, phospho-Erk imaging KS statistic; measured here: nuclear c-Myc green intensity z-score; at 10 µM; cells stimulated with TPA for 15 min
READOUT_LABEL: z-score

1) O=C(Nc1cccnc1)c1cccnc1; 0.364
2) CC1(C)Cc2c(C#N)c(NCCc3ccccc3)nc(-c3ccco3)c2CO1; -1.77
3) Cc1ccc(S(=O)(=O)c2cc3c(=O)n4ccccc4nc3n(C)c2=N)cc1; -0.181
4) C=CCNc1nnc(SC2CC(=O)N(c3ccc(OC)cc3)C2=O)s1 (stereo not drawn); -0.537
5) COc1ccc2c(c1)[nH]c1c(=O)n(CCN(C)C)cnc12; 2.24
6) CCOC(=O)[C@H](CCc1ccccc1)N[C@@H](C)C(=O)N1CCC[C@H]1C(=O)O; 0.592
7) CN(C)c1nc(OCCOC(=O)Nc2ccc(Cl)cc2Cl)nc(N(C)C)n1; 0.513
8) C(=C\c1ccccc1)/CN1CCN(C(c2ccccc2)c2ccccc2)CC1; -0.254
9) O=c1[nH]c(-c2ccccn2)nc2ccccc12; 0.157
10) CN(C)C/C(Cl)=C(\Cl)c1ccccc1; -0.391
11) COc1ccc2c(=O)c(-c3nc(C)cs3)coc2c1; 0.0883
12) Cc1c(/C(O)=C2/C(=O)C(=O)N(CCN3CCOCC3)C2c2cccnc2)cnn1-c1ccccc1 (stereo not drawn); -0.278
13) CCCCc1c(C)nn(-c2nnc3c4ccccc4n(C)c3n2)c1C; 2.07
14) CC(C)OC(=O)C(CC(=O)O)NCc1ccccc1 (stereo not drawn); 0.989
15) COc1cc(-c2nn3c(COc4ccccc4)nnc3s2)cc(OC)c1OC; 2.38
16) CC(=O)c1c(C(C)=O)c(C)n(NC(=O)c2ccncc2)c1C; -1.48
17) O=C(O)c1cc(O)c2c(c1)C(=O)c1cccc(O)c1C2=O; -1.15
18) COc1ccc(C(CC(=O)O)NC(=O)OC(C)(C)C)cc1 (stereo not drawn); 0.856
19) CCN(CC)CCn1c(O)c(N=O)c2ccccc21; -0.252
20) CC(C)Cn1nc(NC(=O)C(C)(C)C)c2cc3ccccc3nc21; -0.417
21) CCOc1ccc(C2=Nn3c(nnc3-c3ccccn3)SC2)cc1; -0.317
22) CC(C)COc1nc2ccccc2nc1C(C#N)C(=O)NC1CCCCC1 (stereo not drawn); 0.614
23) O=C(O)c1cc(-c2ccccc2)nc2ccccc12; 0.0575
24) N#C/C(C(=O)NCc1ccccc1)=C1\SC(CCO)C(=O)N1c1ccccc1 (stereo not drawn); 1.04
25) CC(=O)NS(=O)(=O)c1ccc(N)cc1; 1.33
26) COc1ccc(N2CCN(c3nc4c(c(=O)[nH]c(=O)n4C)n3CCCc3ccccc3)CC2)cc1; -1.43
27) COC(=O)c1c(NC(=O)c2nn(C)cc2Cl)sc2c1CCCC2; -1.15
28) c1ccc(OCc2nn3c(C4CCCCC4)nnc3s2)cc1; -0.363
29) Clc1ccc(SCc2cn3ccsc3n2)cc1; 0.432
30) COc1ccc(Nc2oc(-c3cccs3)nc2C#N)cc1; -0.949
31) COc1ccc(/C=C/C(=O)Nc2ccccc2C(=O)O)cc1OC; -0.319
32) Nc1ccc(S(=O)(=O)NC(=O)c2ccccc2)cc1; 0.254
33) COC(=O)c1ccc(Oc2nc3ccccc3n3c(C)nnc23)cc1; 1.04
34) COC(=O)[C@@H](N)Cc1ccc(O)cc1; 0.189
35) COc1ccc2c(c1)c(CC(=O)OCC(=O)O)c(C)n2C(=O)c1ccc(Cl)cc1; 0.548
36) Oc1ccccc1CNn1cnnc1; -0.194
37) Cc1cc(=O)oc(C)c1C(=O)NCCN1CCOCC1; 0.575
38) COc1ccc(C(=O)NCCCCCC(=O)O)cc1OC; -0.271
39) CC(=O)Oc1ccccc1C1OC(=O)c2ccccc2N1C(C)=O (stereo not drawn); -1.25
40) CCOC(=O)CSC1=C(C#N)C(c2ccc(C)cc2)C(C(=O)OC)C(=O)N1 (stereo not drawn); 0.472
41) CCc1cc2c(=O)c(-c3cscn3)coc2c(CN(C)C)c1O; -0.434
42) CC1CCCCN1C(=O)C12CCC(C)(/C(=N/O)C1)C2(C)C (stereo not drawn); 2.22
43) CCOc1nc(SC(C(C)=O)C(=O)Nc2ccccc2)nc(N(C)C)n1 (stereo not drawn); -0.655
44) COc1cccc(-c2nnc3sc(-c4ccc(C)cc4)nn23)c1; -0.965
45) Cc1cc(C)n(-c2nnc(C)n2/N=C/c2ccco2)n1; -0.585
46) CC(C)C1Cc2c(C#N)c(N)n(C)c(=S)c2CO1 (stereo not drawn); 0.261
47) CC1(C)Cc2c(C#N)c(NCCN3CCOCC3)nc(-c3ccco3)c2CO1; 1.74
48) Cc1ccc(-n2c(N)c(C(N)=O)sc2=S)cc1; -1.13

* * *

experiment: inhibitors of poly I:C-induced TLR3 signaling, primary screen, cell-based, poly I:C stimulus, luciferase, 10K MLSCN set (AID 602277); conditions: HEK293-TLR3 RL24 IRF3 luciferase reporter, at 10 µM, stronger effect = higher value
READOUT_LABEL: inhibition (%)

1) CCN(CC)CCNC(=O)c1cc(Cl)c(N)cc1OC; 30.5
2) Cn1c(=O)[nH]c(=O)c2c1nc(N(CCO)Cc1ccccc1)n2Cc1ccccc1Cl; 28.7
3) CC1(C2(O)CC(c3ccccc3)ON2)CCCCC1 (stereo not drawn); 4.59
4) O=C(O)c1cc(=O)cc(C(=O)O)[nH]1; 20.1
5) Cc1c(NC(=O)c2ccc(=O)oc2)c(=O)n(-c2ccccc2)n1C; 24.4
6) CC(=O)NS(=O)(=O)c1ccc(N)cc1; 26.8
7) CCCCOc1ccc(CC(=O)NO)cc1; 31.2
8) CC1(C)Cc2c(C#N)c(SCCC#N)nc(N3CCOCC3)c2CS1; 18.7
9) CCN(CC)CCNC(=O)c1cc(S(C)(=O)=O)ccc1OC; 35.4
10) Cn1nnnc1SCC1=C(C(=O)O)N2C(=O)[C@@H](NC(=O)[C@H](O)c3ccccc3)[C@H]2SC1; 42
11) C[C@]12CC[C@@H]3c4ccc(O)cc4C(=O)C[C@H]3[C@@H]1CC[C@@H]2O; 18.4
12) O=C(O)c1cc(-c2ccccc2)nc2ccccc12; 34.2
13) CCCCCCCC(=O)OCC(=O)[C@@]1(O)CC[C@H]2[C@@H]3CCC4=CC(=O)CC[C@]4(C)[C@H]3[C@@H](O)C[C@@]21C; 49.5
14) CC(=O)O[C@]1(C(C)=O)CC[C@H]2[C@@H]3C[C@H](C)C4=CC(=O)CC[C@]4(C)[C@H]3CC[C@@]21C; 46.7
15) CC(NCCC(c1ccccc1)c1ccccc1)c1ccccc1 (stereo not drawn); 22.8
16) CC(=O)OCC[N+](C)(C)C; 31.5
17) Cc1c(C=NCCOCc2ccccc2)cnn1C; 12.3
18) CCO/C([O-])=N/c1c[n+](N2CCOCC2)no1; -12.7
19) CN(C)c1nc(OCCOC(=O)Nc2ccc(Cl)cc2Cl)nc(N(C)C)n1; 0.088
20) COc1ccccc1NC(=O)C1=C(C)NC(SCC(=O)c2ccc(C)cc2)=C(C#N)C1c1ccco1 (stereo not drawn); -56.3
21) CNCCCC1c2ccccc2C=Cc2ccccc21; 41.3
22) Nc1ccc(S(=O)(=O)Nc2ccccn2)cc1; 42.5
23) CN/C(=C/[N+](=O)[O-])NCCSCc1ccc(CN(C)C)o1; 30.9
